- Test system: male CD-1 mice
- method: In Vivo Assay: Upper GI Tract Transit (MUGIT)
- recordedConditions: Mus musculus, po, 1 h, dose 30 (mg), p.o., read-out: upper GI transit (% ctrl)
measuredProperty: response vs control in vivo at 30 mg (%)
Numbers only, in %.

Worked set:
>>> df
                               recordsmiles                      measuredproperty  numericreadout
0  Cc1cc(C(N)=O)cc(C)c1C[C@H](N)C(=O)N(Cc1ccc(C(=O)O)o1)[C@@H](C)c1nc(-c2ccccc2)c[nH]1  response vs control in vivo at 30 mg            89.7
1  Cc1cc(C(N)=O)cc(C)c1C[C@H](N)C(=O)N(Cc1cccc(C(=O)O)c1)[C@@H](C)c1nc(-c2ccccc2)c[nH]1  response vs control in vivo at 30 mg            93.9
2  COc1ccc(CN(C(=O)[C@@H](N)Cc2c(C)cc(C(N)=O)cc2C)[C@@H](C)c2nc(-c3ccc(I)cc3)c[nH]2)cc1C(=O)O  response vs control in vivo at 30 mg            76.4
3  COc1ccc(CN(C(=O)[C@@H](N)Cc2c(C)cc(C(N)=O)cc2C)[C@@H](C)c2nc(-c3ccccc3)c[nH]2)cc1OC  response vs control in vivo at 30 mg            71.1
4  COc1ccc(CN(C(=O)[C@@H](N)Cc2ccc(O)cc2)[C@@H](C)c2nc(-c3ccccc3)c[nH]2)cc1C(=O)O  response vs control in vivo at 30 mg            87.7
5  COC(=O)c1cc(CN(C(=O)[C@@H](N)Cc2c(C)cc(C(N)=O)cc2C)[C@@H](C)c2nc(-c3ccccc3)c[nH]2)ccc1OC  response vs control in vivo at 30 mg            37.3
6  Cc1cc(O)cc(C)c1C[C@H](N)C(=O)N(Cc1cccc(C(=O)O)c1)[C@@H](C)c1nc(-c2ccccc2)c[nH]1  response vs control in vivo at 30 mg             102
7  COc1ccc(CN(C(=O)[C@@H](N)Cc2c(C)cc(C(N)=O)cc2C)[C@@H](C)c2nc(-c3ccccc3)c[nH]2)cc1-c1nnn[nH]1  response vs control in vivo at 30 mg            77.3

Kindly give each listed record's response vs control in vivo at 30 mg.
1. COc1ccc(CN(C(=O)[C@@H](N)Cc2c(C)cc(C(N)=O)cc2C)[C@@H](C)c2nc(-c3ccccc3)c[nH]2)cc1C(=O)O
2. Cc1cc(O)cc(C)c1C[C@H](N)C(=O)N(Cc1ccc(C(=O)O)o1)[C@@H](C)c1nc(-c2ccccc2)c[nH]1

1. 37.5
2. 66.4

# credit: patent US10213415B2
